Where do the numbers come from? From patent US20240132578A1.

- SYSTEM_NAME: HIV-1 Env of pseudovirus CAP45 (HIV-1)
- EXPERIMENTAL_PROTOCOL: cell-based or functional assay
OBSERVABLE: IC50, pseudovirus neutralization (TZM-bl assay)

BINDER	TEST_VALUE
1503_H05 (PG16) (TCN-119) (antibody, V domains shown) VH: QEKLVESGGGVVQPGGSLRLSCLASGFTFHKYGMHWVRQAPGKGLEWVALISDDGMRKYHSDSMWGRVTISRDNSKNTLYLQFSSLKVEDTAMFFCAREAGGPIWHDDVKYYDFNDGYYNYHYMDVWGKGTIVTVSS VL: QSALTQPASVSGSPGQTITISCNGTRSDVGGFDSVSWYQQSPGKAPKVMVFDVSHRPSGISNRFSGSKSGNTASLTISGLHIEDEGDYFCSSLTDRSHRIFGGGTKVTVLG	< 0.01 µg/mL
